# Experimental target: human TRPC6 (Homo sapiens, UniProt Q9Y210)
# Construct: expressed in transfected cells
# Sequence (Q9Y210 whole entry): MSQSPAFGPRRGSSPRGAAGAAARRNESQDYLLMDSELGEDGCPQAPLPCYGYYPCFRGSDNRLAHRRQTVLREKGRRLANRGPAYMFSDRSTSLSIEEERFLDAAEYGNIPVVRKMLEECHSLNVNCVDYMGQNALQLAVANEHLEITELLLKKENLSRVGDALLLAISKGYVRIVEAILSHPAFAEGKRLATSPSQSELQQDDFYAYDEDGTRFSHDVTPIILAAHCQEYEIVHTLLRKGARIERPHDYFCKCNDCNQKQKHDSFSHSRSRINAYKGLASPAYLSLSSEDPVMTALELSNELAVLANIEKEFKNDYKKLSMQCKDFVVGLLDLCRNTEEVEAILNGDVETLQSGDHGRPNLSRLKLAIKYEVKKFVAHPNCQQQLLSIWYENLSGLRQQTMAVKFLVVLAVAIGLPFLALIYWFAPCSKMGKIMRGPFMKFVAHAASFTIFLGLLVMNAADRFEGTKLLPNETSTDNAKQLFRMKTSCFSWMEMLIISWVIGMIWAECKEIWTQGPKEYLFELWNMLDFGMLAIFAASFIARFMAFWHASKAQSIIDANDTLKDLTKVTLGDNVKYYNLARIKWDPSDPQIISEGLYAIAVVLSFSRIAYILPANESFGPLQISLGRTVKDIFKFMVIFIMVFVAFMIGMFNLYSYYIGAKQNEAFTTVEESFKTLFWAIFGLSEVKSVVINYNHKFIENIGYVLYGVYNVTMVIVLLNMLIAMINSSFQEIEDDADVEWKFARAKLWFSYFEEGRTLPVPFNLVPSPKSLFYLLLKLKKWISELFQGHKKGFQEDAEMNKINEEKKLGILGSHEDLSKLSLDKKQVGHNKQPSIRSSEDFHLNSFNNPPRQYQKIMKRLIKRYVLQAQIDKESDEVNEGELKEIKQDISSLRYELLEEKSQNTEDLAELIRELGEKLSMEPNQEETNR
# Protocol text: High Throughput Screening Assay Method 1 (FLIPR membrane potential dye, OAG activation, HEK293 cells expressing human TRPC6)
# Assay type: cell-based
# Condition description: antagonist effect against human TRPC6, 60 μM OAG, read-out: Fluorescence TRPC6 IC50
Recorded endpoint: log10 IC50 (log10 of the value in nM)

{"Compound": "Nc1ccc(C2CCN(C(=O)c3ccc(Oc4ccccc4)cc3)CC2)cn1 [Compound 1]", "Experimental target": "human TRPC6 (Homo sapiens, UniProt Q9Y210)", "Recorded endpoint": "log10 IC50", "Result value": 2.51}
{"Compound": "CCc1ccc(Oc2ccc(C(=O)N3CCN(c4ccc(N)nc4)CC3)cc2)cc1 [Compound 14]", "Experimental target": "human TRPC6 (Homo sapiens, UniProt Q9Y210)", "Recorded endpoint": "log10 IC50", "Result value": 2.51}
{"Compound": "Nc1ccc(N2CCN(C(=O)c3ccc(Oc4ccc(C(F)(F)F)cc4)cc3)CC2)cn1 [Compound 19]", "Experimental target": "human TRPC6 (Homo sapiens, UniProt Q9Y210)", "Recorded endpoint": "log10 IC50", "Result value": 3.12}
{"Compound": "Nc1ccc(C2CCN(C(=O)c3ccc(Oc4ccccc4)cc3)CC2)nn1 [Compound 3]", "Experimental target": "human TRPC6 (Homo sapiens, UniProt Q9Y210)", "Recorded endpoint": "log10 IC50", "Result value": 1.59}
{"Compound": "CN(C)C(=O)c1ccc(Oc2ccc(C(=O)N3CCN(c4ccc(N)nn4)CC3)cc2)cc1 [Compound 25]", "Experimental target": "human TRPC6 (Homo sapiens, UniProt Q9Y210)", "Recorded endpoint": "log10 IC50", "Result value": 3.95}
{"Compound": "Nc1ccc(N2CCN(C(=O)c3ccc(Oc4ccc(C(F)(F)F)c(F)c4)cc3)CC2)nn1 [Compound 22]", "Experimental target": "human TRPC6 (Homo sapiens, UniProt Q9Y210)", "Recorded endpoint": "log10 IC50", "Result value": 3.95}
{"Compound": "Nc1ccc(N2CCN(C(=O)c3ccc(Oc4ccc(C(F)(F)F)cc4)cc3)CC2)nn1 [Compound 26]", "Experimental target": "human TRPC6 (Homo sapiens, UniProt Q9Y210)", "Recorded endpoint": "log10 IC50", "Result value": 3.57}
{"Compound": "CC(C)c1ccc(Oc2ccc(C(=O)N3CCN(c4ccc(N)nn4)CC3)cc2)cc1 [Compound 18]", "Experimental target": "human TRPC6 (Homo sapiens, UniProt Q9Y210)", "Recorded endpoint": "log10 IC50", "Result value": 3.12}
